# experimentalProtocol: Solubility in EtOAc/heptane mixtures by HPLC
# Type: physicochemical
# testSettings: organic solvent or mixture, thermodynamic from solid; EtOAc/heptane 20:80 (% v/v), 20° C.
propertyLabel: solubility
Reply with the number, then its unit.

According to the records, this compound `O=C1N[C@H](c2cncc(C#Cc3ccccc3)c2)[C@@H](c2ccccc2Cl)O1` displays solubility of 2000 µg/mL

----------
# experimentalProtocol: Approximate solubility (visual) in solvents
# Assay type: physicochemical
# testSettings: organic solvent or mixture, thermodynamic from solid; heptane, 20° C.; read-out: Approx. solubility
propertyLabel: solubility

According to the records, this compound O=C1N[C@H](c2cncc(C#Cc3ccccc3)c2)[C@@H](c2ccccc2Cl)O1 [Compound 1] displays solubility of < 2000 µg/mL
